Test readout: melting point

Here's what some known entries look like.
Molecule | melting point
CCOC(=O)c1cnc2c(c(C)nn2-c2ccccc2)c1N(Cc1cccnc1)S(=O)(=O)c1ccc(OC)cc1 | 148 to 150 °C
CCCCCCCCOc1ccc(-c2ncc(O)cn2)c(F)c1F | 84 to 85 °C
CCC(=O)n1nc(-c2ccc(Cl)cc2)nc1C | 108 to 109 °C

Asked: // melting point lookup, key: "O=C(Nc1cccc(Cl)c1)c1cc2ccccc2s1"
Given back: 179 °C

Asked: // melting point lookup, key: "Cc1ccc2[nH]c(=O)n(C3CCNCC3)c2c1"
Given back: > 300 °C

Asked: // melting point lookup, key: "COC(=O)c1ccc2cc(OC)ccc2c1O"
Given back: 109 to 111 °C

Asked: // melting point lookup, key: "COc1cc(N2CCN(CCc3coc4ccc(F)cc34)CC2)c2ncccc2c1"
Given back: 80 °C

Asked: // melting point lookup, key: "CC(=O)C(=Cc1ccc(O)c(C(=O)O)c1)C(C)=O"
Given back: 112 to 114 °C

Asked: // melting point lookup, key: CC(C(=O)O)c1ccc(Oc2ccc(F)cc2)cc1 (stereo unspecified)
Given back: 84 to 86 °C

Asked: // melting point lookup, key: "COc1cc(C#N)ccc1C=O"
Given back: 112 to 114 °C

Asked: // melting point lookup, key: CNCC(=O)N1CC(c2ccc(Cl)cc2)Sc2ccccc21 (stereo unspecified)
Given back: 139 to 140 °C

----------
Test readout: melting point (°C)

Compound | melting point / °C
CCOC(=O)C1=C(COC(C)=O)Nc2nc(N)nc(N)c2C1c1cccc([N+](=O)[O-])c1 (stereo not given) | 219

[a] CS(=O)(=O)Nc1cc2c(cc1Oc1ccccc1)C(=O)C(Sc1ccccc1)(Sc1ccccc1)C2
[b] Nc1ccc(-c2noc(-c3cnn4c(C(F)F)cc(-c5ccc(C(F)(F)F)c(F)c5)nc34)n2)cn1
Asked: # compare melting point for a vs b ; return the one with the smaller value Field: selected label. Fill in the label of the entry you choose.
Given back: a

----------
Listed next: entries and their corresponding melting point.

Here's what some known entries look like.
Compound | melting point
O=c1[nH]ncc(NCCN2CCC(c3noc4cc(F)ccc34)CC2)c1Cl | 229 to 231 °C
COc1c(C)c2c(c(O)c1C/C=C(\C)CCC(=O)N1C(=O)OC[C@@H]1Cc1ccccc1)C(=O)OC2 | 112 to 113 °C
CONc1nc(Nc2ccc(C#N)cc2)nc(Oc2c(C)cc(C#N)cc2C)c1Br | 185 to 186 °C
COc1nc(SC)nc(OC)c1C=CC(C)=O | 112 °C
CCOC(=O)C=C(C)Nc1c[nH]nc1-c1ccc(Cl)cc1 | 145 to 146 °C
CN(C)CCC1(CO)c2ccccc2N(C)c2ccc(Cl)cc21 (stereo not given) | 100 °C
Cc1cc(C)cc(NC(=O)Cc2ccc(OC(C)(C)C(=O)O)cc2)c1 | 85 °C
CS(=O)(=O)c1ccc(-c2cc(C(=O)CCCO[N+](=O)[O-])nn2-c2ccccc2)cc1 | 142 to 144 °C

Asked: // melting point lookup, key: CCOC(=O)C(OCC)C(=O)Nc1cc(Cl)cc(Cl)c1 (stereo not given)
Given back: 84 to 86 °C

Asked: // melting point lookup, key: C=C1C(O)C(COC(=O)CCCCCCCCCCCCCCCCC)OC1n1ccc(NC(=O)CCCCCCCCCCCCCCCCC)nc1=O (stereo not given)
Given back: 135 to 139 °C

----------
Test readout: melting point

Here's what some known entries look like.
Molecule | Data value
Cc1ccc(-n2ccc3c(Cl)nnc(Cl)c32)c(C)c1 | 148 to 149 °C
CNC(=O)/C=C/c1cccc(Br)c1 | 147 to 148 °C
C=CCn1cnc2c1c(=O)n(CCC(C)C(C)=O)c(=O)n2C (stereo not given) | 73 to 74 °C
CN(C)C(=O)N1CC(Oc2ccc(C(F)(F)F)cc2Cl)C1 | 106 to 108 °C
COC(=O)c1nc(-c2ccc(Cl)c(OC)c2F)cc(NC(C)=O)c1O | 168 to 172 °C

Asked: // melting point lookup, key: "CCOC(=O)c1nnc(CNC(=O)c2cc3ccccc3[nH]2)n1-c1sc(CC)cc1C(=O)c1ccccc1Cl"
Given back: 233 to 235 °C

Asked: // melting point lookup, key: "CON(C)Cc1nc2c(N)nc3ccccc3c2n1CC(C)(C)O"
Given back: 220 to 222 °C

Asked: // melting point lookup, key: "CN1C(=O)CC[C@]2(C)c3ccc(-c4ccc5c(c4)C(=O)C(=O)N5)cc3CC[C@@H]12"
Given back: > 250 °C

Asked: // melting point lookup, key: "O=c1[nH]cc(C(F)(F)F)cc1Br"
Given back: 162 to 165 °C

Asked: // melting point lookup, key: "COC(=O)Cc1sc(N=C2SC[C@@H]3Cc4ccccc4CN23)nc1C"
Given back: 66 °C

----------
Test readout: melting point

Here's what some known entries look like.
Compound | melting point
CSc1cnc2c(c1)CCC(c1ccc(Cl)c(Cl)c1)O2 (stereo not given) | 109 to 111 °C
O=C(O)COc1cccc(C(=O)O)c1OCC(=O)O | 195 to 197 °C
COc1cccc(-c2ccc3nnn(Cc4ccc5ncccc5c4)c3n2)c1 | 133 to 135 °C

Asked: // melting point lookup, key: CCCCCCC1(c2cc(O)c([C@@H]3CC(=O)C4CC3C4(C)C)c(O)c2)OCCO1 (stereo not given in full)
Given back: 185 to 186 °C

Asked: // melting point lookup, key: "Cc1cc(=O)[nH]c2nc(OCCCCN3CCN(c4cccc(Cl)c4Cl)CC3)ccc12"
Given back: 181 to 182 °C

Asked: // melting point lookup, key: "CNc1ccc(C2=NCCO2)cc1"
Given back: 102 to 105 °C

Asked: // melting point lookup, key: "Cc1c(C(=O)c2cnn(C(C)(C)C)c2O)ccc(S(C)(=O)=O)c1I"
Given back: 171 to 172 °C

Asked: // melting point lookup, key: COC1CCC2C3CCC4CC(=O)C(C)(C)CC4(C)C3CCC12C (stereo not given)
Given back: 116 to 120 °C

Asked: // melting point lookup, key: "N#Cc1c(F)cc2c(c1Cl)N1CCC[C@@H](NC(=O)C(F)(F)F)[C@@H]1c1ccc(F)cc1O2"
Given back: 174 to 175 °C

Asked: // melting point lookup, key: "O=C(Nc1cccc(F)n1)c1cc(-c2ccc(O)cc2)nc2ccccc12"
Given back: 210 to 212 °C

----------
Test readout: melting point

Here's what some known entries look like.
Compound | melting point
CC(Nc1c(Nc2ccc(S(N)(=O)=O)cc2)c(=O)c1=O)C(C)(C)C (stereo not given) | 233 to 235 °C
COC(=O)C(C)(c1ccc([N+](=O)[O-])cc1)c1cc(C)c(C(=O)c2ccc(Cl)cc2)n1C (stereo not given) | 181 to 182 °C
CC(C)(O)P(=O)(Oc1ccccc1)Oc1ccccc1 | 70 to 72 °C
Cc1c(NC(=O)c2ccc(Oc3ccccc3)cc2)ccc2cc(CN3CCCC3)cnc12 | 161 to 162 °C
CCOC(=O)Cc1cn(-c2ncnc3ccccc23)c2ccccc12 | 65 to 67 °C

Asked: // melting point lookup, key: "c1ccc2c(c1)Cc1cc(C3(Cn4ccnc4)OCCO3)ccc1-2"
Given back: 163 to 166 °C

Asked: // melting point lookup, key: CN(CC=C(F)C(F)(F)C(F)(F)C(F)(F)F)CCCCCC1Cc2cc(O)ccc2C2C(F)CC3(C)C(O)CCC3C12 (stereo not given)
Given back: 130 °C

Asked: // melting point lookup, key: "COc1cc2c(=O)n(CCCc3ccccc3)c3cc(OC)c(OC)cc3c2cc1OC"
Given back: 209 to 211 °C

----------
Listed next: entries and their corresponding melting point.

Compound | melting point
CN(C)c1cc(-c2ccnc(Nc3cccc(Cl)c3)n2)ccn1 | 176 to 178 °C

Asked: // melting point lookup, key: "CC(=O)c1ccccc1N(C)S(C)(=O)=O"
Given back: 98 to 99 °C

Asked: // melting point lookup, key: "Oc1cccc2[nH]c(-c3ccccc3)cc12"
Given back: 120 to 123 °C

Asked: // melting point lookup, key: COc1ccc(C2=NN(Cn3nnc4ccccc43)C(=O)[C@H]3CCCC[C@@H]23)cc1OC (relative stereo)
Given back: 173 to 178 °C

Asked: // melting point lookup, key: "COC(=O)[C@H](Cc1cc(F)cc(F)c1)NC(=O)OC(C)(C)C"
Given back: 81 °C

----------
Test readout: melting point

Asked: // melting point lookup, key: "COc1ccc(COc2cccc3cc(NS(=O)(=O)C(F)(F)F)ccc23)cc1Cl"
Given back: 129 to 130 °C

Asked: // melting point lookup, key: "C[C@H](Cn1ncnn1)n1nnc2cc3c(=O)n(C4CC4)nnc3cc2c1=O"
Given back: 190 to 192 °C

Asked: // melting point lookup, key: "O=C(c1ccccc1O)c1ccccc1Br"
Given back: 78 °C

Asked: // melting point lookup, key: "O=[N+]([O-])c1ccc(Sc2cc(Br)nc(Br)c2)cc1"
Given back: 166 to 168 °C

Asked: // melting point lookup, key: "CC(C)(C)CCOc1c(-c2ccc(S(C)(=O)=O)cc2)cnn(CC(F)(F)F)c1=O"
Given back: 83 to 85 °C
